assayed-target: Phosphodiesterase 4 (Homo sapiens, UniProt P27815+Q08499+Q07343+Q08493)
method-summary: Inhibition of human PDE4A1A by IMAP technology
pIC50: −log10 of the molar value.
observable: pIC50

Examples from the recorded data:
smiles-str | test-value
CCOc1ccccc1-c1nnc2n1N=C(c1cc(OC)ccc1OC)CS2 | 4.87
COc1ccc(-c2nnc3n2N=C(c2ccc(OC)c(OC)c2)CS3)c(OC)c1 | 7.10
COc1ccc(-c2nnc3n2N=C(c2ccccc2OC)CS3)c(OC)c1 | 4.71
COc1ccccc1C1=Nn2c(nnc2-c2ccccc2C)SC1 | 4.85

[1] COc1ccc(-c2nnc3n2N=C(c2ccccc2OC)CS3)cc1
[2] COc1cccc(C2=Nn3c(nnc3-c3ccc(OC)c(OC)c3)SC2)c1
[3] COc1ccc(C2=Nn3c(nnc3-c3ccc(OC)c(OC)c3)SC2)cc1OC
[4] COc1ccc(-c2nnc3n2N=C(c2ccc(OC)c(OC)c2)CS3)cc1
Problem: Hi! Can you put these in order of pIC50, lowest number first? # output: labels, in the requested order
Result: 1, 2, 3, 4

[1] COc1ccc(C2=Nn3c(nnc3-c3ccccc3C)SC2)cc1
[2] CCOc1ccccc1-c1nnc2n1N=C(c1ccc(OC)cc1)CS2
[3] COc1ccc(C2=Nn3c(nnc3-c3cc(OC)ccc3OC)SC2)cc1
Problem: I would appreciate it if you could sort these 3 compounds by pIC50, starting from the smallest number. Return the labels ranked in the requested order, please.
Result: 1, 2, 3

[I] COc1cc(OC)cc(-c2nnc3n2N=C(c2c(OC)cccc2OC)CS3)c1
[II] COc1cccc(C2=Nn3c(nnc3-c3ccccc3OC)SC2)c1
[III] COc1cc(OC)cc(-c2nnc3n2N=C(c2ccc(OC)c(OC)c2)CS3)c1
[IV] COc1ccc(OC)c(C2=Nn3c(nnc3-c3ccc(OC)c(OC)c3)SC2)c1
Problem: Rank ascending by pIC50. Reply with the item labels sorted in the order that was asked for.
Result: I, II, IV, III

---

assayed-target: cAMP and cAMP-inhibited cGMP 3',5'-cyclic phosphodiesterase 10A (Homo sapiens)
Sequence (Q9Y233 whole entry): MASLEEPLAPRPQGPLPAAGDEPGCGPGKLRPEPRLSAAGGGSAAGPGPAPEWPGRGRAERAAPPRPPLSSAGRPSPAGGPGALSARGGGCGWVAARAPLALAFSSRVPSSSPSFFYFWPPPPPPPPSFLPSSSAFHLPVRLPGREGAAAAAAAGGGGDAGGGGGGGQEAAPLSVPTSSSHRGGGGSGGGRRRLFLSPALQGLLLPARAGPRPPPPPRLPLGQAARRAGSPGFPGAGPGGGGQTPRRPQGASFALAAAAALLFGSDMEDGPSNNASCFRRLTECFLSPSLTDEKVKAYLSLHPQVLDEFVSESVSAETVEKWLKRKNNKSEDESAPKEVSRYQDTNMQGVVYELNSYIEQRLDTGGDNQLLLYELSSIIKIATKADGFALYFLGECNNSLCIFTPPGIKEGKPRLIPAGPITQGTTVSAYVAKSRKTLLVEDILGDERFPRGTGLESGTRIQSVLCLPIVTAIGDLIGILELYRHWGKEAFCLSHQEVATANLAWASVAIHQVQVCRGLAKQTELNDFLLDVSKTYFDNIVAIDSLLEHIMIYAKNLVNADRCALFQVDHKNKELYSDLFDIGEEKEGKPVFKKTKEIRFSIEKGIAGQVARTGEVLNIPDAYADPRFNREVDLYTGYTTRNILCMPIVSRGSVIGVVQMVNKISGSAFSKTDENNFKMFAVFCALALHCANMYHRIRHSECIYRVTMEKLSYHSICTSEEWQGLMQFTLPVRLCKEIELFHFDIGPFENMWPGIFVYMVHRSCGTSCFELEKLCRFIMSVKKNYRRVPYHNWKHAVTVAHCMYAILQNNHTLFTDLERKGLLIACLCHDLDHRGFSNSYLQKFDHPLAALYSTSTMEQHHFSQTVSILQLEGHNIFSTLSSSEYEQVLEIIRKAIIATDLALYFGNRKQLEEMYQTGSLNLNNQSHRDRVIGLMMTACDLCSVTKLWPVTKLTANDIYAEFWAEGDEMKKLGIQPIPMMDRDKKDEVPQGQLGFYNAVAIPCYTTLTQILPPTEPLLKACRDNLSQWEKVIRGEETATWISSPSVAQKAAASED
observable: IC50

Problem: What value of IC50 has been reported for the following compound? COc1ccc(C2=Nn3c(nnc3-c3ccccc3OC)SC2)cc1OC
Result: > 50 µM

---

assayed-target: Phosphodiesterase 4 (Homo sapiens, UniProt P27815+Q08499+Q07343+Q08493)
method-summary: Inhibition of human PDE4A1A by IMAP technology
observable: IC50 (µM)

Illustrative cases are given below, each with its answer.
smiles-str | unit-of-measurement | IC50
COc1ccc(-c2nnc3n2N=C(c2cc(OC)ccc2OC)CS3)cc1 | µM | 10.1
COc1ccccc1C1=Nn2c(nnc2-c2ccccc2OC)SC1 | µM | 20
COc1cccc(-c2nnc3n2N=C(c2cc(OC)ccc2OC)CS3)c1 | µM | 12.6
COc1ccc(C2=Nn3c(nnc3-c3ccc(OC)c(OC)c3)SC2)cc1 | µM | 7.5
COc1ccc(-c2nnc3n2N=C(c2ccc(OC)cc2OC)CS3)cc1 | µM | 13.4
COc1ccc(OC)c(C2=Nn3c(nnc3-c3cccc(OC)c3OC)SC2)c1 | µM | 11.9

[P] COc1ccc(OC)c(C2=Nn3c(nnc3-c3ccccc3OC)SC2)c1
[Q] COc1cccc(OC)c1C1=Nn2c(nnc2-c2ccccc2C)SC1
[R] COc1cccc(-c2nnc3n2N=C(c2ccc(OC)c(OC)c2)CS3)c1
Problem: Sort entries by IC50 from minimum to maximum value. Answer format: list of labels, ordered as asked.
Result: R, P, Q
